Subject of test: furin, P09958
Sequence (P09958 whole entry): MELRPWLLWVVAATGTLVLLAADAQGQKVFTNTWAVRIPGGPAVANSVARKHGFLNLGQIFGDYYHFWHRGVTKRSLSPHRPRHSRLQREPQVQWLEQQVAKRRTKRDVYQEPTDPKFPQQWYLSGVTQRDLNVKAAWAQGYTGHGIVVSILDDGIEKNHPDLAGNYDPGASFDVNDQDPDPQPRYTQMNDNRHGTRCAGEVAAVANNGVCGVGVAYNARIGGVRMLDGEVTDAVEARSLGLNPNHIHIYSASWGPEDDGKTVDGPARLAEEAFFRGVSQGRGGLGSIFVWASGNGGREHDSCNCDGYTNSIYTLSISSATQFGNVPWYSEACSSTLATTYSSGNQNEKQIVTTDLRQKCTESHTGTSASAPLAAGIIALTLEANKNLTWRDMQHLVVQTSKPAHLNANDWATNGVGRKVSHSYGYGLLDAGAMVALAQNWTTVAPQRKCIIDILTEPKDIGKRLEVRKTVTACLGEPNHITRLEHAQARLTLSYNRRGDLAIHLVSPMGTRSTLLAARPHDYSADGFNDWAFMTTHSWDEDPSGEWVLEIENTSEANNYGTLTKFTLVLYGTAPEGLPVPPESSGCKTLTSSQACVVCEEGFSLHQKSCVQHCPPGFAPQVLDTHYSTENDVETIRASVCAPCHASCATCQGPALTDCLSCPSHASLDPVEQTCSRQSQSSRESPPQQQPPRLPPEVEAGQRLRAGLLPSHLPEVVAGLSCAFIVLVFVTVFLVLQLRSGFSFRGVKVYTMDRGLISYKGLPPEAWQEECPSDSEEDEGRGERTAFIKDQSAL
Protocol description: furin cleavage Z-score vs untreated control; higher = more cleavage, active = 3.5 or more, inactive = 1 or less, 8 variable residues between constant flanks;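 further: purified furin at 1:10 enzyme:substrate in 50 mM HEPES pH 7.5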
Details: 7.5 min
Some of the results follow. The hit rate among all sequences tested is not known here.
Assign class by furin cleavage Z-score: not lower than 0.4 means Satisfied; lower than 0.4 means Not satisfied.

Could you please find out whether CARLRRVVGQAGNASASA [FS-1747] has furin cleavage Z-score that meets 0.4 or exceeds it? Satisfied

Does CACQDHLEFWAGNASASA [HC936] have a reported furin cleavage Z-score of at least 0.4? Not satisfied

Tell me whether furin cleavage Z-score is at least 0.4 here: CARLRRRTSHAGNASASA [FS-2716] Satisfied

furin cleavage Z-score >= 0.4 for CACAVRHMRSAGNASASA [FS-1513] ? Satisfied

hey, is furin cleavage Z-score for this one >= 0.4? CAEGTTPCSGAGNASASA [HC1976] Not satisfied

Hi team, for CARLKRIISHAGNASASA [FS-2706] , is the recorded furin cleavage Z-score at or above 0.4? Satisfied

Identify whether the reported furin cleavage Z-score of the following sequence is 0.4 or greater: CAWLERTMRSAGNASASA [FS-108] Satisfied

Reported furin cleavage Z-score reaches at least 0.4 for CATRTIASPKAGNASASA [HC704] ? Satisfied

furin cleavage Z-score >= 0.4 for CAQTFLATCIAGNASASA [HC694] ? Not satisfied

furin cleavage Z-score >= 0.4 for CAKPTLHGPTAGNASASA [HC968] ? Satisfied

Textbook exercise: given the entry CAGKARARRTAGNASASA [FS-782] , state whether its furin cleavage Z-score is greater than or equal to 0.4. Satisfied

Hello, I need to know if CASQARLGRIAGNASASA [FS-301] has measured furin cleavage Z-score not below 0.4. Thanks! Not satisfied

Does furin cleavage Z-score meet or surpass 0.4 for CAMEEISQHLAGNASASA [HC5] ? Satisfied

Hi team, for CATTPPSGSWAGNASASA [HC60] , is the recorded furin cleavage Z-score at or above 0.4? Not satisfied

Check this sequence for furin cleavage Z-score at or above 0.4: CARLRRAADHAGNASASA [FS-2712] Satisfied

Answer whether furin cleavage Z-score of CAELTPAETTAGNASASA [HC925] is greater than or equal to 0.4. Not satisfied

Would you say CARDRRMMSQAGNASASA [FS-2653] shows furin cleavage Z-score at minimum 0.4? Not satisfied

# bool: furin cleavage Z-score of CARLARFADGAGNASASA [FS-2429] >= 0.4 Not satisfied

Test whether the sequence CASTPCSAHRAGNASASA [HC2573] records furin cleavage Z-score of 0.4 or higher. Not satisfied

For this sequence, is measured furin cleavage Z-score 0.4 or higher? CARNARNVSQAGNASASA [FS-3003] Satisfied

Hi, just wondering whether CARNARIVHLAGNASASA [FS-1755] shows furin cleavage Z-score of 0.4 or higher. Satisfied

Could you tell me if the measured furin cleavage Z-score of CARLRRDTQQAGNASASA [FS-2494] reaches 0.4 or more? Satisfied

Say whether CAARVAIKSLAGNASASA [HC1495] shows furin cleavage Z-score of 0.4 or more. Not satisfied

Dear colleague, could you confirm whether CARIRRRASQAGNASASA [FS-2032] has furin cleavage Z-score at or above 0.4? Satisfied

Does the reported furin cleavage Z-score for CAVVCCKMSYAGNASASA [HC111] fall at or above the 0.4 mark? Satisfied

Identify whether the reported furin cleavage Z-score of the following sequence is 0.4 or greater: CAAPTRARRTAGNASASA [FS-1111] Satisfied

Record CARLRRVSHQAGNASASA [FS-1861] ; criterion: furin cleavage Z-score no lower than 0.4. Met? Not satisfied

furin cleavage Z-score >= 0.4 for CAVVCCSMDYAGNASASA [HC2071] ? Not satisfied

hey, is furin cleavage Z-score for this one >= 0.4? CAPKGPVIQMAGNASASA [HC707] Not satisfied

Quick check, furin cleavage Z-score >= 0.4? CARLRRQKLSAGNASASA [FS-2576] Not satisfied
